The reported numbers originate from ChEMBL document CHEMBL5154930.

Please respond with reported IC50 for every item in the list.
System: MOLM-13
protocol-notes: cells
details: Homo sapiens, MOLM-13, 192 h
Description: Anticancer activity against human MOLM-13 cells harbouring MLL-AF9 assessed as inhibition of cell growth treated for 8 days measured by CCK-8 kit method
Non-standard residues stand in square brackets, D forms with d. Residues, ends and D or L forms follow the SMILES beside them. *: point of attachment. X7 = CC[C@H](C)[C@H](N*)c1nc2cccc(-c3ccccc3)c2[nH]1; X5 = c1ccc(-c2cccc3nc([C@@H]4CCCN4*)[nH]c23)cc1; X1 = C[C@H](N*)c1nc2cccc(-c3ccccc3)c2[nH]1; Ala(cPent) = N[C@@H](CC1CCCC1)C(=O)O; Pentanoyl(4-Me) = CC(C)CCC(=O)*; Dap(Me) = CNC[C@H](N)C(=O)O; Dap = NC[C@H](N)C(=O)O; Bz = O=C(c1ccccc1)*
Give your result in nM as a bare value.

Request: What value of IC50 on MOLM-13 does CC(C)[C@H](NC(=O)[C@@H]1CCCN1C(=O)c1ccccc1)C(=O)N[C@@H](CN)C(=O)N[C@@H](CC1CCCC1)C(=O)N[C@@H](C)c1nc2cccc(-c3ccccc3)c2[nH]1 (Bz-PV[Dap][Ala(cPent)]-X1) have?
Response: 310

Request: What value of IC50 on MOLM-13 does CC(=O)N[C@@H](CC(C)C)C(=O)N1CCC[C@H]1C(=O)N[C@H](C(=O)N[C@@H](CN)C(=O)N[C@@H](CC1CCCC1)C(=O)N[C@@H](C)c1nc2cccc(-c3ccccc3)c2[nH]1)C(C)C (Ac-LPV[Dap][Ala(cPent)]-X1) have?
Response: 460

Request: What value of IC50 on MOLM-13 does CC(=O)N[C@@H](CC(C)C)C(=O)N1CCC[C@H]1C(=O)N[C@H](C(=O)N[C@@H](CN)C(=O)N[C@@H](CC1CCCC1)C(=O)N1CCC[C@H]1c1nc2cccc(-c3ccccc3)c2[nH]1)C(C)C (Ac-LPV[Dap][Ala(cPent)]-X5) have?
Response: 500

Request: What value of IC50 on MOLM-13 does CC[C@H](C)[C@H](NC(=O)[C@H](CC1CCCC1)NC(=O)[C@H](CN)NC(=O)[C@@H](NC(=O)[C@@H]1CCCN1C(=O)[C@H](CC(C)C)NC(C)=O)C(C)C)c1nc2cccc(-c3ccccc3)c2[nH]1 (Ac-LPV[Dap][Ala(cPent)]-X7) have?
Response: 610

Request: What value of IC50 on MOLM-13 does CNC[C@H](NC(=O)[C@@H](NC(=O)[C@@H]1CCCN1C(=O)CCC(C)C)C(C)C)C(=O)N[C@@H](CC1CCCC1)C(=O)N[C@@H](C)c1nc2cccc(-c3ccccc3)c2[nH]1 ({Pentanoyl(4-Me)}-PV[Dap(Me)][Ala(cPent)]-X1) have?
Response: 70

Request: What value of IC50 on MOLM-13 does CC(C)CCC(=O)N1CCC[C@H]1C(=O)N[C@H](C(=O)N[C@@H](CN)C(=O)N[C@@H](CC1CCCC1)C(=O)N[C@@H](C)c1nc2cccc(-c3ccccc3)c2[nH]1)C(C)C ({Pentanoyl(4-Me)}-PV[Dap][Ala(cPent)]-X1) have?
Response: 150
